# Measurement Description: yeast display, Sf9 membrane polyspecificity reagent, FACS + sequencing; frameworks hold sequencing errors
Reported Endpoint: polyreactivity (PSR sort gate)

Would you please look over these solved cases?
[[record]]
sequence_entry = "QVQLVESGGGLVQAGGSLRLSCAASGITFRGYAMGWYRQAPGKERELVATISYRGGNTYYADSVKGRFTISRDNAKNTVYLQMNSLKPEDTAVYYCARKYFRTSNLYGYWGQGTQVTVSS"
result_value = "high polyreactivity"

[[record]]
sequence_entry = "QDQLVESCGGLVQAGGSLRLSCASSGSTIYIYAMGWSRQAPVKERELVAAITWSGGSTYYADSVKGRFTISRDNAKNTVYLQMNSLNREDTAVYYFAAYLRYYRKEVGYSSMNYWGQGTQVTVSS"
result_value = "high polyreactivity"

[[record]]
sequence_entry = "QVQLVESGGGLVQAGGSLRLSCAASGSILYSYPMGWYRQAPGKERELVAAITGDGASTTYADSVKGRFTISRDNAKNTVYLQLNSLKPEDTAVYYCKAGRESDDVSEGSQRICQFDYWGPGTQVTVSS"
result_value = "low polyreactivity"

[[record]]
sequence_entry = "QVQLVESGGGLVQAGGSLRLSCAASGRTFKGYAMGWYRQAPGKERELVAAITGSVGSTYYADSVKGRFTISRDNAKNTVYLQMNSLKPEDTAVYYCAKRWKATRARYDYWGQGTQVTVSS"
result_value = "high polyreactivity"

[[record]]
sequence_entry = "QVQLVESGGGLVQAGGSLRLSCAASGRIFRGSAMGWYRQAPGKERELVATINASGGTTYYADSVKGRFTISRDNAKNTVYLQMNSLKPEDTAVYYCNARFRRFFSGYGYWGQGTQVTVSS"
result_value = "high polyreactivity"


Challenge: Using known records, supply polyreactivity (PSR sort gate) for QVQLVESGGGLVQAGGSLRLSCAASGFTSAPYAMGWYRQAPGKERELVAAISSGDTTSYADSVKGRFTISRDNAKNTVYLQMNSLKPEDTAVYYCAAVYFNVIESYKTAGYDYWGQGTQVTVSS
Response given: low polyreactivity

Challenge: Using known records, supply polyreactivity (PSR sort gate) for QVQLVESGGGLVQAGGSLRLSCAASGFTFWRYAMGRYRQAPGKERELVAGISSGGSTNYADSVKGRFTISRDNAKNTVYLQMNSLKPEDTAVYYCAARGNYFYGIYGYWGQGTQVTVSS
Response given: low polyreactivity

Challenge: Using known records, supply polyreactivity (PSR sort gate) for QVQLVESGGGLVQAGGSLRLSCAASGSIFVLYAMGWYRQAPGKERELVAAINYDGASTYYADSVKGRFTNSRDNAKNTVYLQMISLKREDTAVYYCAASWQFNIDVQLYLFEYWGQGTQVTVSS
Response given: low polyreactivity

Challenge: Using known records, supply polyreactivity (PSR sort gate) for QGQLVESGGGLVQAGGSLRLSCAASGIIFILYTMGWYRQAPGKEREFVATISSGGGSTFYADSVKGRFTISRDNAKNTVYLQMNSLKPEDTAVYYCAAEQLYYCERYYIWGYYYWGQGTQVTVSS
Response given: low polyreactivity

Challenge: Using known records, supply polyreactivity (PSR sort gate) for QVQLVESGGGLVQAGGSLRLSCAASGGIFNYYAMGWYRQAPGKERELVAAISASGGSTYYADSVKGRFTISRDNAKNTVYLQMNSLKPEDTAVYYCAAGLPYGYGYDYWGQGTQVTVSS
Response given: low polyreactivity

Challenge: Using known records, supply polyreactivity (PSR sort gate) for QVQLVESGGGLVQAGGSLRLSCAASGNTFLRNTMGWYRQAPGKERELVAAISWGGGTTYYADSVKGRFTISRDNAKNTVYLQINSLKPEDSAVYYCNARYYSRRGNSWGQGTQVTVSS
Response given: high polyreactivity
